- Target System: T1, shFcRn (soluble human FcRn) (human, UniProt P55899 24-297; P61769 21-119)
- T1 construct: extracellular domain; Printed only as 'soluble human FcRn'; also called hFcRn (immobilized on a chip)
- T1 sequence (P55899 24-297 limits assumed, chain 1 of 2): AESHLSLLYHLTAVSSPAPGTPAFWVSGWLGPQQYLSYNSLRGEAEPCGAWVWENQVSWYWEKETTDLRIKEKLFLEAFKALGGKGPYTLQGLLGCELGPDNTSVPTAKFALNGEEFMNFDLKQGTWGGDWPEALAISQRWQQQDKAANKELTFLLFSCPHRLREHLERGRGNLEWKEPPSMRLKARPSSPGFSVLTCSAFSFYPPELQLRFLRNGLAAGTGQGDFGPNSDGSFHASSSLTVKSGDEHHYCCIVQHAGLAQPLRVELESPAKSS
- T1 sequence (P61769 21-119 limits assumed, chain 2 of 2): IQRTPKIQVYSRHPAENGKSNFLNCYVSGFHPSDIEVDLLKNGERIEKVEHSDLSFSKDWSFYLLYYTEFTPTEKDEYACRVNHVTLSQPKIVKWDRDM
- Method: SPR, shFcRn immobilized on chip, antibody as analyte, pH 7.4;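 note: kinetics fitted with a 1:1 Langmuir model, association 200 s and dissociation 600 s in PBST, double-referenced against buffer-only and interspot signals, values averaged over repeated runs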
Rule: measured koff below 0.0005 s⁻¹ gets true (1); anything equal to or greater than 0.0005 s⁻¹ gets false (0).

Task item: Just wondering, is koff of HL161AN variant No. 1 (LC:N25S, HC:C32S) (antibody, V domains shown, also called HL161ANS; #1 (HL161ANS)) VL: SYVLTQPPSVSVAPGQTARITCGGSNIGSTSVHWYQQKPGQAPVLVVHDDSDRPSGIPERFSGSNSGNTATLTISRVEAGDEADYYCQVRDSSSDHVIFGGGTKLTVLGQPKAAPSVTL VH: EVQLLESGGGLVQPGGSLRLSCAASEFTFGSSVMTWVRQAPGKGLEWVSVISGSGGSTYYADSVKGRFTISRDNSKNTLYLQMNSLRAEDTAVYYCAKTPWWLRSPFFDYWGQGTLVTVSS below 0.0005 s⁻¹?
Reply: true (1)

Task item: Dear colleague, could you confirm whether koff of HL161AN variant No. 17 (LC:N25Q, HC:C32S Q82S) (antibody, human IgG1, V domains shown, Variable domains only) VL: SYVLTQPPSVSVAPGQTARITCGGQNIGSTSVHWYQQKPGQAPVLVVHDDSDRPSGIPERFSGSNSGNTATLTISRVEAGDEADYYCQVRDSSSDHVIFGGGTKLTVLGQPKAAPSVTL VH: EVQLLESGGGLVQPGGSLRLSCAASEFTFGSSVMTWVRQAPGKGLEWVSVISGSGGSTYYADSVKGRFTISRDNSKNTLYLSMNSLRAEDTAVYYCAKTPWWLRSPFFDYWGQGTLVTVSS falls below 0.0005 s⁻¹? Thanks.
Reply: false (0)

Task item: I'd appreciate it if you could check whether HL161AN variant No. 5 (LC:N25S, HC:Q82E) (antibody, human IgG1, V domains shown, Variable domains only) VL: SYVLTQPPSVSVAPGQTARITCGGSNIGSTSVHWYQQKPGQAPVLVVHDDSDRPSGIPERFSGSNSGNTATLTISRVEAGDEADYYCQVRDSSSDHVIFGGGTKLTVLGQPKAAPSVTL VH: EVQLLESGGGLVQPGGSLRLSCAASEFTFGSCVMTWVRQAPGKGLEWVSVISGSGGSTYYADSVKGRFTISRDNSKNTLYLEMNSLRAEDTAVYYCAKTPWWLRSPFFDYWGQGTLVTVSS has koff smaller than 0.0005 s⁻¹.
Reply: false (0)
